Data provenance is ChEMBL document CHEMBL1201862.

# System: MDA-MB-231
# ASSAY_NOTES: NCI tumour cell line growth inhibition, 48 h
Calls of active or inactive are those of the source. No stated cut-off is given here; in the data, active = GI50 up to about 1.1 µM and inactive = higher.

{"MOLECULE": "Nc1nc(SCc2ccccc2Cl)cc(C(=O)O)n1", "TARGET_OR_SYSTEM": "MDA-MB-231", "GI50": "> 100 µM (inactive)"}
{"MOLECULE": "CN(/N=C\\c1ccc2ccccc2c1)C1=NCCCN1", "TARGET_OR_SYSTEM": "MDA-MB-231", "GI50": "15.6 µM (inactive)"}
{"MOLECULE": "COc1cccc2c(Nc3ccc(S(=O)(=O)Nc4ncccn4)cc3)c3ccc([N+](=O)[O-])cc3nc12", "TARGET_OR_SYSTEM": "MDA-MB-231", "GI50": "38.7 µM (inactive)"}
{"MOLECULE": "CCOC(=O)NC1=C(N2CC2)C(=O)C(NC(=O)OCC)=C(N2CC2)C1=O", "TARGET_OR_SYSTEM": "MDA-MB-231", "GI50": "8.13 µM (inactive)"}
{"MOLECULE": "O=C1C(NCCO)=C(N2CC2)C(=O)C(NCCO)=C1N1CC1", "TARGET_OR_SYSTEM": "MDA-MB-231", "GI50": "> 90.4 µM (inactive)"}
{"MOLECULE": "O=C1N[C@H]2c3c(Cl)sc(Cl)c3C(=O)[C@H]2O1", "TARGET_OR_SYSTEM": "MDA-MB-231", "GI50": "25.6 µM (inactive)"}
{"MOLECULE": "C=CCNC1=C2C[C@@H](C)C[C@@H](OC)[C@H](OC(=O)CN)[C@H](C)/C=C(\\C)[C@@H](OC(N)=O)[C@H](OC)/C=C\\C=C(/C)C(=O)NC(=CC1=O)C2=O", "TARGET_OR_SYSTEM": "MDA-MB-231", "GI50": "3.71 µM (inactive)"}
{"MOLECULE": "O=C1Cc2c([nH]c3ccc(Br)cc23)-c2cc(O)c(O)cc2N1", "TARGET_OR_SYSTEM": "MDA-MB-231", "GI50": "> 100 µM (inactive)"}
{"MOLECULE": "CN(C)N1C(=C(C#N)C#N)C(c2ccccc2)CC1C#N (stereo not given)", "TARGET_OR_SYSTEM": "MDA-MB-231", "GI50": "> 100 µM (inactive)"}
{"MOLECULE": "CC1=NN=C(N)NC1=CC(Sc1ccc(Cl)cc1)c1c(O)ccc2ccccc12 (stereo not given)", "TARGET_OR_SYSTEM": "MDA-MB-231", "GI50": "21.1 µM (inactive)"}

* * *

# Tested on: LOX IMVI
# ASSAY_NOTES: NCI tumour cell line growth inhibition, 48 h
Active and inactive are the calls of the source. Rule as the data show it: active = GI50 up to about 1.1 µM and inactive = higher.
Classes used: active, inactive

{"MOLECULE": "COC(=O)c1ccccc1/C=C1\\Cc2ccc(C)c(C)c2C1=O", "TARGET_OR_SYSTEM": "LOX IMVI", "CLASS_ASSIGNMENT": "inactive"}
{"MOLECULE": "COc1ccc(CN(Cc2ccc(OC)cc2)C(=O)CC2(O)C=CCC2)cc1 (stereo not drawn)", "TARGET_OR_SYSTEM": "LOX IMVI", "CLASS_ASSIGNMENT": "inactive"}
{"MOLECULE": "C=CCOc1cc2c(cc1C(C)c1ccc(OC)cc1)OCO2 (stereo not drawn)", "TARGET_OR_SYSTEM": "LOX IMVI", "CLASS_ASSIGNMENT": "active"}
{"MOLECULE": "COc1ccc(S(=O)(=O)N(CC(=O)O)c2ccccc2)cc1", "TARGET_OR_SYSTEM": "LOX IMVI", "CLASS_ASSIGNMENT": "inactive"}
{"MOLECULE": "CCOC(=O)CSc1nnc2cc(CN3CCCC3)c(-c3ccc(Cl)cc3)nn12", "TARGET_OR_SYSTEM": "LOX IMVI", "CLASS_ASSIGNMENT": "inactive"}
{"MOLECULE": "COc1cccc2c1C(=O)C1=C(C2=O)C(O)CC(C)(C)O1 (stereo not drawn)", "TARGET_OR_SYSTEM": "LOX IMVI", "CLASS_ASSIGNMENT": "inactive"}
{"MOLECULE": "CCOC(=O)c1nc2ccccc2nc1NCc1ccc(OC)cc1", "TARGET_OR_SYSTEM": "LOX IMVI", "CLASS_ASSIGNMENT": "inactive"}
{"MOLECULE": "O=C(Nc1nc2ccccc2n1Cc1ccc(Cl)cc1)NC12CC3CC(CC(C3)C1)C2", "TARGET_OR_SYSTEM": "LOX IMVI", "CLASS_ASSIGNMENT": "inactive"}
{"MOLECULE": "CCCCNC(=S)Nc1nc(C(=O)NNC(=O)c2ccccc2)cs1", "TARGET_OR_SYSTEM": "LOX IMVI", "CLASS_ASSIGNMENT": "inactive"}
{"MOLECULE": "Cc1csc(CP(=O)(OC(C)C)OC(C)C)n1", "TARGET_OR_SYSTEM": "LOX IMVI", "CLASS_ASSIGNMENT": "inactive"}
{"MOLECULE": "COC(=O)/C(=N\\NC(N)=O)C(C(=O)C(=O)Nc1ccccc1C(=O)OC)c1nc2ccc(C(=O)c3ccccc3)cc2nc1O (stereo not drawn)", "TARGET_OR_SYSTEM": "LOX IMVI", "CLASS_ASSIGNMENT": "inactive"}
{"MOLECULE": "COc1cc(-c2ccc(NC(=O)SCCC(=O)O)cc2OC)ccc1NC(=O)SCCC(=O)O", "TARGET_OR_SYSTEM": "LOX IMVI", "CLASS_ASSIGNMENT": "inactive"}
{"MOLECULE": "COc1cc2c(cc1C[N+](C)(C)CSc1ccccc1)-c1ccccc1CC2", "TARGET_OR_SYSTEM": "LOX IMVI", "CLASS_ASSIGNMENT": "inactive"}
{"MOLECULE": "CCOC(=O)C(=O)Nc1cccc(Cl)c1C", "TARGET_OR_SYSTEM": "LOX IMVI", "CLASS_ASSIGNMENT": "inactive"}
{"MOLECULE": "O=c1c(O)cccn1C1OC(CO)C(O)C1O (stereo not drawn)", "TARGET_OR_SYSTEM": "LOX IMVI", "CLASS_ASSIGNMENT": "inactive"}
{"MOLECULE": "Cc1ccc(NC(=O)CC/C(CC(=O)c2ccc(Cl)cc2)=N\\NC(=O)C(=O)NN)cc1C", "TARGET_OR_SYSTEM": "LOX IMVI", "CLASS_ASSIGNMENT": "inactive"}
{"MOLECULE": "NC(=S)NNC(=O)/C(=C/c1ccc(/C=C(\\NC(=O)c2ccccc2)C(=O)NNC(N)=S)cc1)NC(=O)c1ccccc1", "TARGET_OR_SYSTEM": "LOX IMVI", "CLASS_ASSIGNMENT": "inactive"}
{"MOLECULE": "CCCCc1c2c(nc3c1CC/C(=C\\c1ccccc1)C3=O)CCCC2", "TARGET_OR_SYSTEM": "LOX IMVI", "CLASS_ASSIGNMENT": "inactive"}
{"MOLECULE": "COC(=O)C1(C(=O)OC)N=C(C)OC1C(C)C (stereo not drawn)", "TARGET_OR_SYSTEM": "LOX IMVI", "CLASS_ASSIGNMENT": "inactive"}
{"MOLECULE": "CCOC(=O)CNC(=O)C(CSC(=O)N(C)O)NC(=O)CCC(N)C(=O)O (stereo not drawn)", "TARGET_OR_SYSTEM": "LOX IMVI", "CLASS_ASSIGNMENT": "active"}
{"MOLECULE": "CCCN(CCC)c1cc2c(cc1F)c(=O)c(C(=O)O)cn2-c1ccc(N2CCN(C)CC2)cn1", "TARGET_OR_SYSTEM": "LOX IMVI", "CLASS_ASSIGNMENT": "inactive"}
{"MOLECULE": "Nc1nc(SCc2ccccc2Cl)cc(C(=O)O)n1", "TARGET_OR_SYSTEM": "LOX IMVI", "CLASS_ASSIGNMENT": "inactive"}
{"MOLECULE": "COc1ccc(/C=C/C(=O)c2ccc(OC(=O)/C=C/c3ccccc3)cc2)cc1", "TARGET_OR_SYSTEM": "LOX IMVI", "CLASS_ASSIGNMENT": "inactive"}
{"MOLECULE": "NC(C/C=C/P(=O)(O)O)C(=O)O (stereo not drawn)", "TARGET_OR_SYSTEM": "LOX IMVI", "CLASS_ASSIGNMENT": "inactive"}
{"MOLECULE": "CCOP1(=O)C=CC(Cl)=C(C)C1 (stereo not drawn)", "TARGET_OR_SYSTEM": "LOX IMVI", "CLASS_ASSIGNMENT": "inactive"}
{"MOLECULE": "CN1NC(c2ccc(Cl)cc2)=C(C#N)C(=O)CC1c1ccccc1 (stereo not drawn)", "TARGET_OR_SYSTEM": "LOX IMVI", "CLASS_ASSIGNMENT": "inactive"}
{"MOLECULE": "CCCCCCCCCCCCCC/C(C(=O)O)=C(\\C)C(=O)O", "TARGET_OR_SYSTEM": "LOX IMVI", "CLASS_ASSIGNMENT": "inactive"}
{"MOLECULE": "N#C/N=C(\\NCCc1c[nH]c2ccccc12)NCc1ccccc1", "TARGET_OR_SYSTEM": "LOX IMVI", "CLASS_ASSIGNMENT": "inactive"}
